System: ACHN renal
Experiment: NCI-60 one-dose screen, 48 h
Conditions: 10 µM unless noted
Method: Growth inhibition of the ACHN human tumor cell line is measured as a screen for anti-cancer activity. Cells are grown in 96 well plates and exposed to the test compound for 48 hours. Compounds are tested at a single concentration, which is 10^-5 M for most compounds. The reported endpoint is percent growth (GI% or GIPRCNT), where numbers from 0 - 100% represent growth inhibition, and numbers from -100% - 0 represent cell death. For example, a value of 40 represents 60% growth inhibition. […]
The panel holds about 83,000 compounds, 20% with a hit somewhere; the sample as a whole holds those more often. Active and inactive are the calls of the source. How the source made its calls: active means growth percent below 10; inactive means the rest.
Tick one outcome: true = active, false = inactive

QUERY: Test call for this compound, please: `Cc1cc(Cl)nc(N2CCN(CCNc3ccnc4cc(Cl)ccc34)CC2)n1`
RESULT: false

QUERY: Same for `CC1(C)CC[C@]23CC[C@]4(C)[C@H](CC[C@@H]5[C@@]6(C)CCNCC(C)(C)[C@@H]6CC[C@]54C)[C@H]2[C@H]1OC3`
RESULT: false

QUERY: Same for `O=C1/C(=C/c2cccc(Br)c2)COc2ccc(O)cc21`
RESULT: false

QUERY: Same for `CCN1C2CCC1/C(=C\c1ccccc1)C(=O)/C2=C/c1ccccc1`
RESULT: false

QUERY: Same for `CN(C)CCCn1c2c(c3ccncc3c1=O)C(=O)c1ccccc1-2`
RESULT: true

QUERY: Same for `C#COc1cccc(Nc2ncnc3cc(NC(=O)[C@H](C)Cl)ccc23)c1`
RESULT: false

QUERY: Same for `N#Cc1ccccc1-c1ccc(CN2C(=O)S/C(=C\c3ccc(Br)cc3)C2=O)cc1`
RESULT: false

QUERY: Same for `COc1ccc2c(c1)CC[C@@H]1[C@@H]2CC[C@]2(C)c3c(cc(C#N)c4c3sc3ccccc34)C[C@@H]12`
RESULT: false

QUERY: Same for `O=S(=O)(Nc1cc(F)cc(F)c1)c1ccc(-c2cnc(C3CC3)o2)cc1`
RESULT: false

QUERY: Same for `O=C(/C=C/c1ccccc1)c1cccc2ccccc12`
RESULT: false
